Measured GI50 accompanies every entry in the list below.
# System: KM-20L2
# protocolDescription: Growth inhibition of human KM20L2 cells incubated for 48 hrs by sulforhodamine B assay
# Type: functional
# studyConditions: KM-20L2, 48 h

>>> testresult("CC[C@H]1CN2CCc3cc(OC)c(OC)cc3[C@@H]2C[C@@H]1C[C@@H]1c2cc(OC)c(OC)cc2CCN1C(=O)CCNC(=O)[C@H](C)[C@@H](OC)[C@@H]1CCCN1C(=O)OC(C)(C)C")
"> 10 µg/mL"

Fill in the recorded GI50 for this compound, with KM-20L2 as test system: `CC[C@H]1CN2CCc3cc(OC)c(OC)cc3[C@@H]2C[C@@H]1C[C@@H]1c2cc(OC)c(OC)cc2CCN1C(=O)[C@H](C)[C@@H](OC)[C@@H]1CCCN1C(=O)C[C@@H](OC)[C@H]([C@@H](C)CC)N(C)C(=O)[C@@H](NC(=O)[C@H](C(C)C)N(C)C)C(C)C`
35.8 nM

----------
# Test system: NCI-H460
# protocolDescription: Growth inhibition of human NCI-H460 cells incubated for 48 hrs by sulforhodamine B assay
# Type: functional
# studyConditions: NCI-H460, 48 h
measuredAttribute: GI50 (µM)
Supply the numeric figure in µM, leaving out any unit text.

Solved cases (3 shown):
>>> testresult("CC[C@H]1CN2CCc3cc(OC)c(OC)cc3[C@@H]2C[C@@H]1C[C@@H]1c2cc(OC)c(OC)cc2CCN1C(=O)[C@H](C)[C@@H](OC)[C@@H]1CCCN1C(=O)C[C@@H](OC)[C@H]([C@@H](C)CC)N(C)C(=O)[C@@H](NC(=O)[C@H](C(C)C)N(C)C)C(C)C")
0.198
>>> testresult("CC[C@H]1CN2CCc3cc(OC)c(OC)cc3[C@@H]2C[C@@H]1C[C@@H]1c2cc(OC)c(OC)cc2CCN1C(=O)CCNC(=O)[C@H](C)[C@@H](OC)[C@@H]1CCCN1C(=O)C[C@@H](OC)[C@H]([C@@H](C)CC)N(C)C(=O)[C@@H](NC(=O)[C@H](C(C)C)N(C)C)C(C)C")
2.83
>>> testresult("CC[C@H]1CN2CCc3cc(OC)c(OC)cc3[C@@H]2C[C@@H]1C[C@@H]1c2cc(OC)c(OC)cc2CCN1C(=O)[C@H](C)[C@@H](OC)[C@@H]1CCCN1")
5.7

Sample `CC[C@H]1CN2CCc3cc(OC)c(OC)cc3[C@@H]2C[C@@H]1C[C@@H]1c2cc(OC)c(OC)cc2CCN1CCNC(=O)[C@H](C)[C@@H](OC)[C@@H]1CCCN1C(=O)C[C@@H](OC)[C@H]([C@@H](C)CC)N(C)C(=O)[C@@H](NC(=O)[C@H](C(C)C)N(C)C)C(C)C` — what was its GI50?
4.53

----------
# Test system: KM-20L2
# protocolDescription: Growth inhibition of human KM20L2 cells incubated for 48 hrs by sulforhodamine B assay
# Format: functional
# studyConditions: KM-20L2, 48 h
Counter-ions that a name gives are not always drawn.
measuredAttribute: GI50 (nM)
Express it in nM; write the number only.

Answered examples (2):
>>> testresult("CC[C@H]1CN2CCc3cc(OC)c(OC)cc3[C@@H]2C[C@@H]1C[C@@H]1c2cc(OC)c(OC)cc2CCN1C(=O)CCNC(=O)[C@H](C)[C@@H](OC)[C@@H]1CCCN1C(=O)C[C@@H](OC)[C@H]([C@@H](C)CC)N(C)C(=O)[C@@H](NC(=O)[C@H](C(C)C)N(C)C)C(C)C")
194
>>> testresult("CC[C@H]1CN2CCc3cc(OC)c(OC)cc3[C@@H]2C[C@@H]1C[C@H]1NCCc2cc(OC)c(OC)cc21 [EMETINE HYDROCHLORIDE]")
47

If you can, please state the reported GI50 value of `CC[C@H]1CN2CCc3cc(OC)c(OC)cc3[C@@H]2C[C@@H]1C[C@@H]1c2cc(OC)c(OC)cc2CCN1CCNC(=O)[C@H](C)[C@@H](OC)[C@@H]1CCCN1C(=O)C[C@@H](OC)[C@H]([C@@H](C)CC)N(C)C(=O)[C@@H](NC(=O)[C@H](C(C)C)N(C)C)C(C)C` .
362

Entry `CC[C@H]1CN2CCc3cc(OC)c(OC)cc3[C@@H]2C[C@@H]1C[C@@H]1c2cc(OC)c(OC)cc2CCN1C(=O)[C@H](C)[C@@H](OC)[C@@H]1CCCN1` has what GI50?
3420

Origin of the recorded values: ChEMBL document CHEMBL4616664
